Recorded values, source PubChem BioAssay (NCI).

Test system: SNB-19 CNS
procedure text: NCI tumour cell line growth inhibition, 48 h
parameter: TGI

1. CC(C)C(C/C=C1/CC(CO)(COC(=O)CC(C(C)C)C(C)C)OC1=O)C(C)C (stereo unspecified)	25.8 µM
2. CC(C)C(=O)N[C@@H](C)C(=O)N(Cc1ccc2ccccc2c1)N=O	> 100 µM
3. O=c1ccccc2cccc(O)c12	> 100 µM
4. COC(=O)CC1(CNC(=O)OCc2ccccc2)OCCO1	> 100 µM
5. O=C(OCCOCBr)c1ccccc1	> 100 µM
6. CN1CCC2(CC1)C(=O)N(N1CCCCCC1)C(=O)N2c1ccccc1	> 100 µM

----------
System: MALME-3M melanoma
procedure text: NCI tumour cell line growth inhibition, 48 h
Catalogue of compounds with associated TGI
parameter: TGI

1) O=C(OCCOCBr)c1ccccc1	> 100 µM
2) COc1ccc(Cc2nc3cc(C(F)(F)F)ccc3n2CCCN(C)C)cc1	29.1 µM
3) COc1cc(OC)c2c(c1OC)OCC(Cc1ccc(O)cc1)C2=O (stereo unspecified)	> 25 µM
4) CC(=O)Nc1ccc(CNc2cc(=O)[nH]c(=O)[nH]2)cc1	> 100 µM
5) COc1ccc(O)c(C(=O)c2ccc(C(=O)O[C@@H]3CCCNC[C@H]3NC(=O)c3ccncc3)cc2)c1F	> 25 µM
6) Cn1c(CCC#N)nc2ccc(Br)cc2c1=O	> 100 µM
7) O=P(O)(O)C(O)/C=C/c1ccccc1 (stereo unspecified)	> 100 µM
8) Cn1c(=O)cc2c3c(c(NCCCO)ccc31)C(=O)c1ccccc1-2	7.35 µM
9) CC(C)(C)c1ccc([I+]c2ccc(C(C)(C)C)cc2)cc1	2.01 µM
10) O=C(Oc1ccccc1)c1cc2cc(CCl)ccc2oc1=O	8.11 µM
11) Cc1ccc(C(=O)C(C)N)cc1 (stereo unspecified)	> 100 µM
12) O=S1(=O)CCN(Cc2ccccn2)CC1	> 100 µM
13) COC(CCP(=O)(c1ccccc1)c1ccccc1)(C(=O)c1ccccc1)c1ccccc1 (stereo unspecified)	15.4 µM
14) O=C1NC2(CCCCC2)N=C2C(Cl)CCCC12Cl (stereo unspecified)	> 100 µM
15) OCCN(CCO)c1ccc2c(C(F)(F)F)cc(C(F)(F)F)nc2n1	> 100 µM
16) CC[N+]1(C)CCC(O)(c2ccc(Cl)cc2)C(C(=O)c2ccc(Cl)cc2)C1 (stereo unspecified)	25.6 µM
17) O=C(NO)c1coc2ccccc2c1=O	> 100 µM
18) C(=C1c2ccccc2-c2ccccc21)c1ccccn1	27 µM
19) CC(=O)Oc1ccc2c(c1)c1c(=O)oc(N(C)C)nc1n2Cc1ccccc1	> 100 µM
20) CC(C)C(C/C=C1/CC(CO)(COC(=O)CC(C(C)C)C(C)C)OC1=O)C(C)C (stereo unspecified)	23.1 µM
21) O=C(Cn1nc(Br)c(Br)c1Br)c1ccccc1	72.4 µM
22) CC(C)(C)c1ccc(CN2CCN(C(c3ccccc3)c3ccc(Cl)cc3)CC2)cc1 (stereo unspecified)	> 100 µM
23) COc1cc2c(c(OC)c1OC)-c1[nH]ncc1CC2	> 100 µM
24) O=C1CCCC/C1=C/C=C/c1ccccc1	> 100 µM
25) CS(=O)(=O)CCNCc1ccc(-c2ccc3ncnc(Nc4ccc(OCc5cccc(C(F)(F)F)c5)cc4)c3c2)o1	10.5 µM
26) CC(=O)N1CC2Nc3ccccc3C2CC1CO (stereo unspecified)	> 100 µM

----------
# reported TGI; entries follow
System: SK-MEL-5 melanoma
procedure text: NCI tumour cell line growth inhibition, 48 h
parameter: TGI

1) CN(C)CCNc1ccc([N+](=O)[O-])c2nc3ccccc3c(N)c12	2.79 µM
2) CCC(Sc1nnc2c3ccccc3n(CC)c2n1)C(=O)Nc1ccccc1OC (stereo unspecified)	> 100 µM
3) Cn1c(COC(=O)N2CCCCC2)nc2c(N3CCOCC3)nc(-c3ccccc3)nc21	2.79 µM
4) COc1ccc(C(c2ccc(C(C)C)cc(=O)c2O)c2c(O)cc3oc(-c4ccccc4)cc(=O)c3c2O)cc1 (stereo unspecified)	29.4 µM
5) CC(=O)Nc1ncc(Sc2ccccc2C(=O)O)s1	> 100 µM
6) CCOP(=O)(Nc1ccc(-c2ccccc2)cc1)OCC	> 100 µM
7) COc1ccc2c(c1)CC[C@@H]1[C@@H]2CC[C@@]2(C)[C@H]1CC1(CCCCC1)[C@@H]2O	20.4 µM
8) Cc1cc(N(CCC#N)CCC#N)ccc1/C(N=Nc1cccc([N+](=O)[O-])c1)=N/NC(=O)c1cc(Cl)ccc1O	39.3 µM
9) CC1(O)CC2C(CC1SCCO)C2(C)C (stereo unspecified)	> 100 µM
10) CCCNCc1nc2ccc(Br)cc2c(=O)n1CCC	21.6 µM
11) O=c1c2ccc3cccc4c(=O)cc(c5ccccc15)-c2c34	> 100 µM
12) CC(C)C(C/C=C1/CC(CO)(COC(=O)CC(C(C)C)C(C)C)OC1=O)C(C)C (stereo unspecified)	22.3 µM
13) Cc1ccc2c(c1)NC(=O)CCSSCCC(=O)N2	> 100 µM
14) CC(C)OP(=O)(CN(C)/C(F)=N\C(F)(F)F)OC(C)C	> 100 µM
15) N#Cc1ccccc1C#C/C=C\C#Cc1ccc(OCCCNC(=O)c2cc3ccccc3[nH]2)cc1	20.2 µM
16) CCC[CH2][Sn]([CH2]CCC)([O]C(=O)c1cccc(F)c1)[O]C(=O)c1cccc(F)c1	2.76 µM
17) CC(=O)O[C@@H]1CO[C@H]2O[C@H]3[C@@H](C(C=O)=C[C@H](O)[C@@H]4C5=C(C(C)C)CC[C@]5(C)CC[C@@]34C)[C@@]2(O)C1=O	0.577 µM
18) C1COC(NC(C2CC2)C2CC2)=N1	> 100 µM
19) CC(=O)OC12c3ccccc3C1CCCCCC21OCCCO1 (stereo unspecified)	> 100 µM
20) CC(=O)OCC1OC(n2c(N)c(C#N)c(-c3ccccc3)c(C#N)c2=S)C(OC(C)=O)C(OC(C)=O)C1OC(C)=O (stereo unspecified)	> 100 µM
21) O=c1cc(Cl)nc[nH]1	> 100 µM

----------
Test system: K-562 leukemia
procedure text: NCI tumour cell line growth inhibition, 48 h
parameter: TGI

1. Cc1ccc(NC(=O)/C(CC(=O)c2c[n+](=O)c3ccccc3n2O)=N\NC(=O)C[n+]2ccccc2)cc1	> 100 µM
2. COc1ccc(-c2n[nH]nc2-c2csc3ccccc23)cc1OC	> 100 µM
3. O=C(O)CSc1cc(-c2ccccc2)nc2ccccc12	> 100 µM
4. COc1cc(OC)c2c(=O)c(O)c(-c3ccc(OC)c(OC)c3)oc2c1	> 100 µM
5. C#C[C@]1(O)CC[C@H]2[C@@H]3CC=C4c5sc(N=C(N)N)nc5CC[C@]4(C)[C@H]3CC[C@@]21C	1.35 µM
6. C1COC(NC(C2CC2)C2CC2)=N1	> 100 µM
7. CCN(CC)c1ccc2c(c1)Oc1nc(N)c(C#N)c(N)c1C2Sc1ccc(SC)cc1 (stereo not given)	5.69 µM
8. Nc1nc(Cl)cc(NCC2(CO)CCC(Cc3ccccc3)C2)n1 (stereo not given)	64.8 µM
9. CC(ONC(=O)c1cc(C(F)(F)F)cc(C(F)(F)F)c1)C(=O)Nc1ccc(Cl)cc1 (stereo not given)	> 45.5 µM
10. COc1cc(CSc2nc3ccc(C)cc3c(=O)n2Cc2ccccc2)cc(OC)c1OC	> 100 µM

----------
Test system: KM12 colon
procedure text: NCI tumour cell line growth inhibition, 48 h
parameter: TGI

1. O=C(c1cc(Cl)cc(Cl)c1)N(C(=S)OC12CC3CC(CC(C3)C1)C2)c1ccccc1	> 100 µM
2. O=C1OC(c2ccc(O)c(Cl)c2)(c2ccc(O)c(Cl)c2)c2ccc(Br)c3cccc1c23 (tested in a mixture with another compound)	42.2 µM
3. C/C(=N\Nc1ccc([N+](=O)[O-])cc1[N+](=O)[O-])c1ccc2ccccc2n1	> 100 µM
4. COC(=O)CC1(CNC(=O)OCc2ccccc2)OCCO1	> 100 µM
5. c1ccc(N=C2SC(=NNc3ccccc3)SC2=Nc2ccccc2)cc1	> 100 µM
6. CCC(Sc1nnc2c3ccccc3n(CC)c2n1)C(=O)Nc1ccccc1OC (centres undefined)	> 100 µM
7. COc1cc(OC)c2c(c1OC)OCC(Cc1ccc(O)cc1)C2=O (centres undefined)	> 25 µM
8. CN(C)CCn1c2ccccc2c2nc3cc4ccccc4cc3nc21	16.8 µM
9. Cc1cc(NS(=O)(=O)c2ccc(NC(=O)c3cccc4c(N)c5ccccc5nc34)cc2)no1	58.3 µM
10. c1ccc(C2SCC3=Nc4ccccc4CN32)cc1 (centres undefined)	> 100 µM
11. Cc1c(-c2cc3n(n2)C(c2cccs2)C(C#N)=C(c2ccccc2)N3)c(=O)n(-c2ccccc2)n1C (centres undefined)	> 100 µM
12. O=C(CN1CCN(C(=O)OCc2ccccc2)CCN(CC(=O)N2CCCCC2)CCN(C(=O)OCc2ccccc2)CC1)N1CCCCC1	46.3 µM
13. Cc1cc(N(CCC#N)CCC#N)ccc1/C(N=Nc1cccc([N+](=O)[O-])c1)=N/NC(=O)c1cc(Cl)ccc1O	> 100 µM
14. CC(NS(C)(=O)=O)c1ccccc1 (centres undefined)	> 100 µM
15. C1COC(NC(C2CC2)C2CC2)=N1	> 100 µM
16. COC(=O)C(CCC1C=CCC1)N=Cc1ccccc1 (centres undefined)	> 100 µM
17. Cc1csc2nc(-c3ccc([N+](=O)[O-])cc3)c(/C=N/N=C(N)N)n12	3.49 µM
18. CO[C@@H]1[C@@H](OC2OC(C)C(OC3CC(C)(O)C(OC(=O)CC(C)C)C(C)O3)C(N(C)C)C2O)[C@@H](CC=O)C[C@@H](C)C(=O)/C=C/C2O[C@H]2C[C@@H](C)OC(=O)C[C@H]1OC(C)=O (some centres undefined)	32.2 µM
19. CC(C)OP(=O)(CN(C)/C(F)=N\C(F)(F)F)OC(C)C	> 100 µM
